tested on: MCF7 breast; assay: NCI tumour cell line growth inhibition, 48 h; in the data active = GI50 below about 0.43 µM; inactive = the rest
The reply should name one outcome from Yes for active, No for inactive

{"columns": ["compound", "measured.target", "label.class"],
 "data": [
  ["Cc1ccccc1-n1ncc(C(=O)c2ccccc2)c1N", "MCF7 breast", "No"]
]}

Give the logged outcome of this assay for the following compound: "COc1ccc2c(CN3CCC(C(=O)O)CC3)cc3cc4c(cc3c2c1)OCO4" No

What about "Nc1nc(OCc2cc(Br)cs2)c2[nH]cnc2n1" ? No

What about "CN(C)c1ccc(N=C2C=CC(=[N+](C)C)C=C2)cc1" ? No

What about "CCCCCCCCCCCCCC1=NCCN1CCO" ? No

What about "COc1cc(-c2nc3ccccc3s2)ccc1NC(=O)COc1ccc(Cl)cc1" ? No

What about "c1cc2[nH]ncc2cc1-c1nc2ccc3[nH]ncc3c2c2c1CCCC2" ? No

What about CC(C)(C)C(=O)OCOP(=O)(OCOC(=O)C(C)(C)C)C1CC(O)N(O)C1=O (stereo unspecified) ? No

What about "CC(=O)c1cc(C(=O)c2ccc3c(c2)Sc2ccccc2N3)c2c(C)cc(C)cn12" ? Yes

What about "Nc1nc2c(s1)CCc1c-2c(Br)n(Cc2ccccc2)c1Br" ? No

What about NC1CCC(Nc2nc(NCc3ccc(-c4cccs4)nc3)c3ncn(C4CCCC4)c3n2)CC1 (stereo unspecified) ? Yes

* * *

system: SK-MEL-5 melanoma; experiment: NCI tumour cell line growth inhibition, 48 h
measured.attribute: TGI

Provide value of TGI for this record tested with SK-MEL-5 melanoma: "O=C(O)CCc1ccc2c(c1)C(=O)CC2" > 100 µM

What about "O=C(N=Nc1cccc(Cl)c1)NNc1cccc(Cl)c1" ? 38.4 µM

What about "COc1ccc(OCc2ccc3nc(-c4ccccc4)c(Cl)nc3c2)cc1" ? 25.8 µM

What about CC(NC(=O)C(N)CC(=O)O)NC(=O)C1CCC1 (configuration not stated) ? > 100 µM

What about "O=CNc1ncn[nH]1" ? > 100 µM

What about "COC1CCN(C(=O)c2cc(Cc3n[nH]c(=O)c4ccccc34)ccc2F)CC1" ? > 100 µM

What about "COc1ccc2c(c1)[n+](=O)c(C(=O)c1ccco1)c(C(F)(F)F)n2[O-]" ? 2.68 µM

What about "C[C@]12CC/C(=N\O)C=C1CC[C@@H]1[C@@H]2CC[C@]2(C)C(=N/O)/C(=C/c3ccc([N+](=O)[O-])cc3)C[C@@H]12" ? 16.2 µM

What about COc1ccc(C(CC(=O)C(C)(C)CN2CCCCC2)SCCS(=O)(=O)O)cc1 (configuration not stated) ? 62.5 µM

What about "Nc1cc(N2CCCC2)nc(=O)n1-c1ccccc1" ? > 100 µM

What about "[O-][n+]1ccccc1S" ? 30.9 µM

What about "O=C(O)c1ccc(NC(NC(=O)C(C(F)(F)F)C(F)(F)F)(C(F)(F)F)C(F)(F)F)cc1" ? > 100 µM

What about "CNCc1cc(OC)ccc1-c1ccc(OC)c(OC)c1OC" ? > 100 µM

* * *

tested on: SF-268 CNS; assay: NCI tumour cell line growth inhibition, 48 h
measured.attribute: TGI (µM)
Give the value, in units of µM, as a plain number.

Would you please look over these solved cases?
{"columns": ["compound", "measured.attribute", "test.value"],
 "data": [
  ["COc1cc(OC)c(/C=C\\c2cc(/C=C/c3c(OC)cc(OC)cc3OC)c3ccccc3[n+]2C)c(OC)c1", "TGI", 10.5],
  ["O=C(c1ccccc1)c1ccc(Oc2ccc([N+](=O)[O-])cc2[N+](=O)[O-])cc1", "TGI", 11.9],
  ["Cc1ccc(C(SCC(N)C(=O)O)(c2ccc(C)cc2)c2ccc(C)cc2)cc1 (stereo not given)", "TGI", 19.5]
]}

As a next step, examine the compound that follows.
Can you look up the measured TGI of "CCCCCCOc1ccc(C(=O)NO)cc1" for me? 28.7
